Readout: logP

Structure smiles string	logP
O=C(O)Cn1c(=O)sc2cccc(Cl)c21	2.21

Please fill in: logP reported for O=C(O)Cc1ccc(Cl)c(Cl)c1 = 2.9

###

assay: method code SF-AS, from DOI: 10.1021/jm0401006, PMID: 15481980; conditions: pH 7.4
Readout: logD
Just the number, please, no unit attached.

Noted for CCOC(=O)c1cnc2c(c(C)nn2C)c1Nc1ccc(OC(C)=O)cc1 : its logD reads 1.67

###

experiment: method code SF, from DOI: 10.1248/cpb.42.1525, PMID: 7923475
Readout: logP
Give the figure by itself; no unit, no explanation.

Reported logP of COC(=O)c1ccccc1 : 2.09
